Assign logD to each entry below.
Experiment: Octanol-water partition coefficient, log D of the compound at pH 7.4
Type: physicochemical
Form rule: numeric answer, no unit written next to it.

Task item: Answer with reported logD of CN1CC2CCC1(C(NC(=O)c1cccc(C(F)(F)F)c1Cl)c1cccnc1)CC2 (racemic)
Reply: 2.3

Task item: Answer with reported logD of Cc1cccc(C)c1C(=O)NC(c1ccccc1)C12CC(CN1)C2 (stereo not given)
Reply: 0.8

Task item: Answer with reported logD of "COc1cncc(Cl)c1C(=O)N[C@H](c1ccccc1)C12CCC(CC1)CN2C"
Reply: 1

Task item: Answer with reported logD of "Cc1cccc(C)c1C(=O)N[C@H](c1ccccc1)C12CCC(CC1)CN2C"
Reply: 1.9

Task item: Answer with reported logD of Cc1cccc(C)c1C(=O)NC(c1cccc(-c2cnn(C)c2)c1)C12CCC(CC1)CN2C (stereo not given)
Reply: 2.1
